Overview of recorded pEC50 for various compounds
- target-or-test-system: interaction between PD-1 and PD-L1 expressed on cell surfaces (Jurkat/NF-κB-luc/PD1 cells cocultured with Raji-PD-L1 cells) (Homo sapiens, UniProt Q9NZQ7)
- Construct: Jurkat cells (PD-1, NF-κB-luc reporter)
- Sequence (Q9NZQ7 19-290): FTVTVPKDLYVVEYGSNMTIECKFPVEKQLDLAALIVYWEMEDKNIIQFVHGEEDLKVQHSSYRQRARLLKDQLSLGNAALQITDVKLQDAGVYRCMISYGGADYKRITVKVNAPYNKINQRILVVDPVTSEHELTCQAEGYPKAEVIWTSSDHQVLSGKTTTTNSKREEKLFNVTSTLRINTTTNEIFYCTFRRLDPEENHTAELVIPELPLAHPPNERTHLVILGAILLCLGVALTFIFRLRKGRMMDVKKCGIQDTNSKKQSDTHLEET
- assay-summary: Jurkat reporter gene cellular assay
- protocol-conditions: OKT3 1 μg/mL stimulation, 6 hrs, activation fold vs DMSO
As a rule, pEC50 stands for the negative log10 of the concentration, concentration in M.

1. Cc1c(NC(=O)c2cc(C3CC3)c(CNCCO)cn2)cccc1-c1cccc(NC(=O)c2cc(C3CC3)c(CN3CCCC[C@H]3C(=O)O)cn2)c1C | 8.17

// next entry
Asked: Value lookup for pEC50; key = Cc1c(NC(=O)c2cc(C3CC3)c(CN[C@H]3CCOC3)cn2)cccc1-c1cccc(NC(=O)c2cc(C3CC3)c(CN3CCCC[C@H]3C(=O)O)cn2)c1C
Given back: 8.06

---

Overview of recorded pIC50 for various compounds
- target-or-test-system: interaction between PD-1 and PD-L1 (Homo sapiens, UniProt Q9NZQ7)
- Sequence (Q9NZQ7 19-238 limits assumed): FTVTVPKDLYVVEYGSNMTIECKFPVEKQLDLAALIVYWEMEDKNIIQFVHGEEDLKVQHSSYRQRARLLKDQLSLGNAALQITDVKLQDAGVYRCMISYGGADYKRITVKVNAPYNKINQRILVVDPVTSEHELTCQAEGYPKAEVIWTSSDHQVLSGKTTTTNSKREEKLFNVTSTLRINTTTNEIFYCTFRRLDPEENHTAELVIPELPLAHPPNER
- assay-summary: PD1-PDL1 HTRF binding activity test
- protocol-conditions: Cisbio PD-1/PD-L1 binding assay kit; percent inhibition vs DMSO
As a rule, pIC50 stands for the negative log10 of the concentration, concentration in M.

1. Cc1c(NC(=O)c2cc(C3CC3)c(CN3CCC[C@H]3CO)cn2)cccc1-c1cccc(NC(=O)c2cc(C3CC3)c(CN3CCCC[C@H]3C(=O)O)cn2)c1C | 8.58
2. CCOC(=O)[C@H](CO)NCc1cnc(C(=O)Nc2cccc(-c3cccc(NC(=O)c4cc(C5CC5)c(CNCCO)cn4)c3C)c2C)cc1C1CC1 | 8.25
3. CNCc1cnc(C(=O)Nc2cccc(-c3cccc(NC(=O)c4cc(C5CC5)c(CN5CCCC[C@H]5C(=O)O)cn4)c3C)c2C)cc1C1CC1 | 9.31
4. Cc1c(NC(=O)c2cc(C3CC3)c(CNC3CCCC3)cn2)cccc1-c1cccc(NC(=O)c2cc(C3CC3)c(CN3CCCC[C@H]3C(=O)O)cn2)c1C | 8.50
5. Cc1c(NC(=O)c2cc(C3CC3)c(CN3CC[C@@H](O)C3)cn2)cccc1-c1cccc(NC(=O)c2cc(C3CC3)c(CN3CCCC[C@H]3C(=O)O)cn2)c1C | 8.83

Asked: Value lookup for pIC50; key = Cc1c(NC(=O)c2cc(C3CC3)c(CNC(C)C)cn2)cccc1-c1cccc(NC(=O)c2cc(C3CC3)c(CN3CCCC[C@H]3C(=O)O)cn2)c1C
Given back: 8.29

Asked: For Cc1c(NC(=O)c2cc(C3CC3)c(CN[C@H](C)CO)cn2)cccc1-c1cccc(NC(=O)c2cc(C3CC3)c(CN[C@H](CO)C(=O)O)cn2)c1C then?
Given back: 9.17

Asked: For CCOC(=O)[C@@H](CO)NCc1cnc(C(=O)Nc2cccc(-c3cccc(NC(=O)c4cc(C5CC5)c(CN[C@H](C)CO)cn4)c3C)c2C)cc1C1CC1 then?
Given back: 8.32

Asked: For Cc1c(NC(=O)c2cc(C3CC3)c(CNC3CC3)cn2)cccc1-c1cccc(NC(=O)c2cc(C3CC3)c(CN3CCCC[C@H]3C(=O)O)cn2)c1C then?
Given back: 8.47

Asked: For Cc1c(NC(=O)c2cc(C3CC3)c(CN[C@H]3CCC[C@@H]3O)cn2)cccc1-c1cccc(NC(=O)c2cc(C3CC3)c(CN3CCCC[C@H]3C(=O)O)cn2)c1C then?
Given back: 8.99

Asked: For Cc1c(NC(=O)c2cc(C3CC3)c(CN[C@H](CO)C(=O)O)cn2)cccc1-c1cccc(NC(=O)c2cc(C3CC3)c(CN3CCC[C@H]3CO)cn2)c1C then?
Given back: 9.04

Asked: For Cc1c(NC(=O)c2cc(C3CC3)c(CN[C@@H](CO)C(=O)O)cn2)cccc1-c1cccc(NC(=O)c2cc(C3CC3)c(CN3CCCC[C@H]3C(=O)O)cn2)c1C then?
Given back: 8.73

Asked: For CCOC(=O)[C@H](CO)NCc1cnc(C(=O)Nc2cccc(-c3cccc(NC(=O)c4cc(C5CC5)c(CN5CCCC[C@H]5C(=O)O)cn4)c3C)c2C)cc1C1CC1 then?
Given back: 8.59

Asked: For Cc1c(NC(=O)c2cc(C3CC3)c(CNCCO)cn2)cccc1-c1cccc(NC(=O)c2cc(C3CC3)c(CN[C@H](CO)C(=O)O)cn2)c1C then?
Given back: 8.71

Asked: For Cc1c(NC(=O)c2cc(C3CC3)c(CNCCO)cn2)cccc1-c1cccc(NC(=O)c2cc(C3CC3)c(CN3CCCC[C@H]3C(=O)O)cn2)c1C then?
Given back: 8.97

Asked: For CCOC(=O)[C@@H](CO)NCc1cnc(C(=O)Nc2cccc(-c3cccc(NC(=O)c4cc(C5CC5)c(CN5CC[C@@H](O)C5)cn4)c3C)c2C)cc1C1CC1 then?
Given back: 8.24

Asked: For CCOC(=O)[C@@H](CO)NCc1cnc(C(=O)Nc2cccc(-c3cccc(NC(=O)c4cc(C5CC5)c(CN5CC(C)(O)C5)cn4)c3C)c2C)cc1C1CC1 then?
Given back: 7.19

---

- target-or-test-system: interaction between PD-1 and PD-L1 (Homo sapiens)
- assay-summary: PD1-PDL1 HTRF binding activity test
- protocol-conditions: Cisbio PD-1/PD-L1 binding assay kit; percent inhibition vs DMSO
Under this convention, label 1 denotes IC50 strictly below 2 nM and label 0 denotes IC50 at or above 2 nM.

Sample answers from the record:
1) Cc1c(NC(=O)c2cc(C3CC3)c(CN[C@H](CO)C(=O)O)cn2)cccc1-c1cccc(NC(=O)c2cc(C3CC3)c(CN3CCC[C@@H]3CO)cn2)c1C [Example 55] | label 0
2) Cc1c(NC(=O)c2cc(C3CC3)c(CN[C@H](CO)C(=O)O)cn2)cccc1-c1cccc(NC(=O)c2cc(C3CC3)c(CN3CCCC[C@H]3C(=O)O)cn2)c1C [Example 30] | label 1
3) Cc1c(NC(=O)c2cc(C3CC3)c(CN[C@@H]3CCC[C@H]3O)cn2)cccc1-c1cccc(NC(=O)c2cc(C3CC3)c(CN3CCCC[C@H]3C(=O)O)cn2)c1C [Example 6] | label 1
4) Cc1c(NC(=O)c2cc(C3CC3)c(CN[C@H](CO)C(=O)O)cn2)cccc1-c1cccc(NC(=O)c2cc(C3CC3)c(CN3CC(C)(O)C3)cn2)c1C [Example 36] | label 1
5) Cc1c(NC(=O)c2cc(C3CC3)c(CN[C@@H](C)CO)cn2)cccc1-c1cccc(NC(=O)c2cc(C3CC3)c(CN[C@H](CO)C(=O)O)cn2)c1C [Example 39] | label 1
6) Cc1c(NC(=O)c2cc(C3CC3)c(CN[C@@](C)(CO)C(=O)O)cn2)cccc1-c1cccc(NC(=O)c2cc(C3CC3)c(CN[C@@](C)(CO)C(=O)O)cn2)c1C [Example 67] | label 1
7) CCNCc1cnc(C(=O)Nc2cccc(-c3cccc(NC(=O)c4cc(C5CC5)c(CN5CCCC[C@H]5C(=O)O)cn4)c3C)c2C)cc1C1CC1 [Example 8] | label 1
8) Cc1c(NC(=O)c2cc(C3CC3)c(CN[C@H](C)CO)cn2)cccc1-c1cccc(NC(=O)c2cc(C3CC3)c(CN3CCCC[C@H]3C(=O)O)cn2)c1C [Example 2] | label 1

Asked: Quick check: IC50 of Cc1c(NC(=O)c2cc(C3CC3)c(CNC3COC3)cn2)cccc1-c1cccc(NC(=O)c2cc(C3CC3)c(CN3CCCC[C@H]3C(=O)O)cn2)c1C [Example 23] under 2 nM?
Given back: label 0

Asked: For Cc1c(NC(=O)c2cc(C3CC3)c(CNC(C)CO)cn2)cccc1-c1cccc(NC(=O)c2cc(C3CC3)c(CN3CCCC[C@H]3C(=O)O)cn2)c1C (stereo in doubt) [Example 3] then?
Given back: label 1

Asked: For Cc1c(NC(=O)c2cc(C3CC3)c(CN3CC[C@H](O)C3)cn2)cccc1-c1cccc(NC(=O)c2cc(C3CC3)c(CN3CCCC[C@H]3C(=O)O)cn2)c1C [Example 14] then?
Given back: label 1

Asked: For Cc1c(NC(=O)c2cc(C3CC3)c(CN[C@H]3CCOC3)cn2)cccc1-c1cccc(NC(=O)c2cc(C3CC3)c(CN3CCCC[C@H]3C(=O)O)cn2)c1C [Example 25] then?
Given back: label 1

---

- target-or-test-system: interaction between PD-1 and PD-L1 expressed on cell surfaces (Jurkat/NF-κB-luc/PD1 cells cocultured with Raji-PD-L1 cells) (Homo sapiens)
- Construct: Jurkat cells (PD-1, NF-κB-luc reporter)
- assay-summary: Jurkat reporter gene cellular assay
- protocol-conditions: OKT3 1 μg/mL stimulation, 6 hrs, activation fold vs DMSO
readout: pEC50
As a rule, pEC50 stands for the negative log10 of the concentration, concentration in M.

Some solved cases for reference:
1) Cc1c(NC(=O)c2cc(C3CC3)c(CN[C@H](CO)C(=O)O)cn2)cccc1-c1cccc(NC(=O)c2cc(C3CC3)c(CN3CCC[C@@H]3CO)cn2)c1C | 7.00
2) CCOC(=O)[C@@H](CO)NCc1cnc(C(=O)Nc2cccc(-c3cccc(NC(=O)c4cc(C5CC5)c(CN[C@H](C)CO)cn4)c3C)c2C)cc1C1CC1 | 6.66

Asked: Value lookup for pEC50; key = Cc1c(NC(=O)c2cc(C3CC3)c(CNC(C)CO)cn2)cccc1-c1cccc(NC(=O)c2cc(C3CC3)c(CN3CCCC[C@H]3C(=O)O)cn2)c1C (stereo in doubt)
Given back: 7.83

Asked: For Cc1c(NC(=O)c2cc(C3CC3)c(CNC3CC3)cn2)cccc1-c1cccc(NC(=O)c2cc(C3CC3)c(CN3CCCC[C@H]3C(=O)O)cn2)c1C then?
Given back: 6.92

Asked: For Cc1c(NC(=O)c2cc(C3CC3)c(CN3CCCC3)cn2)cccc1-c1cccc(NC(=O)c2cc(C3CC3)c(CN3CCCC[C@H]3C(=O)O)cn2)c1C then?
Given back: 7.97

Asked: For CCOC(=O)[C@@H](CO)NCc1cnc(C(=O)Nc2cccc(-c3cccc(NC(=O)c4cc(C5CC5)c(CN5CCCC[C@H]5C(=O)O)cn4)c3C)c2C)cc1C1CC1 then?
Given back: 6.94

Asked: For Cc1c(NC(=O)c2cc(C3CC3)c(CNC3CCOCC3)cn2)cccc1-c1cccc(NC(=O)c2cc(C3CC3)c(CN3CCCC[C@H]3C(=O)O)cn2)c1C then?
Given back: 7.28

Asked: For CCOC(=O)[C@@H](CO)NCc1cnc(C(=O)Nc2cccc(-c3cccc(NC(=O)c4cc(C5CC5)c(CN5CC[C@@H](O)C5)cn4)c3C)c2C)cc1C1CC1 then?
Given back: 6.59

Asked: For Cc1c(NC(=O)c2cc(C3CC3)c(CN3CCC[C@H]3CO)cn2)cccc1-c1cccc(NC(=O)c2cc(C3CC3)c(CN3CCCC[C@H]3C(=O)O)cn2)c1C then?
Given back: 7.56

Asked: For Cc1c(NC(=O)c2cc(C3CC3)c(CNC3COC3)cn2)cccc1-c1cccc(NC(=O)c2cc(C3CC3)c(CN3CCCC[C@H]3C(=O)O)cn2)c1C then?
Given back: 7.11

Asked: For Cc1c(NC(=O)c2cc(C3CC3)c(CN[C@H]3CCC[C@@H]3O)cn2)cccc1-c1cccc(NC(=O)c2cc(C3CC3)c(CN[C@H](CO)C(=O)O)cn2)c1C then?
Given back: 7.41

Asked: For CCOC(=O)[C@H](CO)NCc1cnc(C(=O)Nc2cccc(-c3cccc(NC(=O)c4cc(C5CC5)c(CN5CCCC[C@H]5C(=O)O)cn4)c3C)c2C)cc1C1CC1 then?
Given back: 7.37

Asked: For Cc1c(NC(=O)c2cc(C3CC3)c(CN[C@@H](C)CO)cn2)cccc1-c1cccc(NC(=O)c2cc(C3CC3)c(CN[C@H](CO)C(=O)O)cn2)c1C then?
Given back: 7.44

Asked: For Cc1c(NC(=O)c2cc(C3CC3)c(CN[C@H](CO)C(=O)O)cn2)cccc1-c1cccc(NC(=O)c2cc(C3CC3)c(CN3CC(C)(O)C3)cn2)c1C then?
Given back: 7.28

Asked: For Cc1c(NC(=O)c2cc(C3CC3)c(CN3CC(C)(O)C3)cn2)cccc1-c1cccc(NC(=O)c2cc(C3CC3)c(CN3CCCC[C@H]3C(=O)O)cn2)c1C then?
Given back: 7.82

Asked: For Cc1c(NC(=O)c2cc(C3CC3)c(CNCCO)cn2)cccc1-c1cccc(NC(=O)c2cc(C3CC3)c(CN[C@@H](CO)C(=O)O)cn2)c1C then?
Given back: 7.60

Asked: For Cc1c(NC(=O)c2cc(C3CC3)c(CN[C@@](C)(CO)C(=O)O)cn2)cccc1-c1cccc(NC(=O)c2cc(C3CC3)c(CN[C@@](C)(CO)C(=O)O)cn2)c1C then?
Given back: 7.71

Asked: For Cc1c(NC(=O)c2cc(C3CC3)c(CN[C@H](CO)C(=O)O)cn2)cccc1-c1cccc(NC(=O)c2cc(C3CC3)c(CN3CCCC[C@H]3C(=O)O)cn2)c1C then?
Given back: 7.74

Asked: For Cc1c(NC(=O)c2cc(C3CC3)c(CNC3CCOCC3)cn2)cccc1-c1cccc(NC(=O)c2cc(C3CC3)c(CN[C@H](CO)C(=O)O)cn2)c1C then?
Given back: 7.06

Asked: For CCOC(=O)[C@@H](CO)NCc1cnc(C(=O)Nc2cccc(-c3cccc(NC(=O)c4cc(C5CC5)c(CN[C@@H](C)CO)cn4)c3C)c2C)cc1C1CC1 then?
Given back: 6.58

Asked: For Cc1c(NC(=O)c2cc(C3CC3)c(CNCCO)cn2)cccc1-c1cccc(NC(=O)c2cc(C3CC3)c(CN[C@H](CO)C(=O)O)cn2)c1C then?
Given back: 7.54

Asked: For CCNCc1cnc(C(=O)Nc2cccc(-c3cccc(NC(=O)c4cc(C5CC5)c(CN5CCCC[C@H]5C(=O)O)cn4)c3C)c2C)cc1C1CC1 then?
Given back: 7.62
